- System: recombinant hGALT (human galactose-1-phosphate uridyltransferase) (Homo sapiens)
- Construct: synthetic gene in pET-15b (NdeI-BamHI, insert 1149 bp), His-tagged, E. coli BL21(DE3)-RIPL, Ni-NTA purified; tag removal not mentioned
- Sequence (P07902 whole entry): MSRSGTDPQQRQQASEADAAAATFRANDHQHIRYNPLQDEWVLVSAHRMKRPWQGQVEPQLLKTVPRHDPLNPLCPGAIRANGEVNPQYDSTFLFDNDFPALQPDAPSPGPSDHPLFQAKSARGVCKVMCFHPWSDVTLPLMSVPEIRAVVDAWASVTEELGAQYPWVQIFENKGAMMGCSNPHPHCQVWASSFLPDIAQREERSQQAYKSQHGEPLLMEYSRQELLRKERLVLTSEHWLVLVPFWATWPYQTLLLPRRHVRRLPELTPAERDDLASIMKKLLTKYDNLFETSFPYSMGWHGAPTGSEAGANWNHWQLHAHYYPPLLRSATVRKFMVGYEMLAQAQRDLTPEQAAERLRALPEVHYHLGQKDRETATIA
- Test protocol: coupled PGM/G6PDH assay, NADPH absorbance at […] nm
Measured attribute: pKi
The quantity pKi is defined as the negative base-10 logarithm of the molar concentration.

Q) Find the recorded pKi belonging to O=P(O)(O)O[C@H]1O[C@H](CO)[C@H](O)[C@H](O)[C@H]1F [F-Gal-1-P, 2-fluoro-2-deoxy-galactose-1-phosphate] and report it.
A) 3.05
